Origin of values: patent US8354403B2

Catalogue of pEC50 readings, one per entry.
- SYSTEM: human β3 adrenergic receptor (Homo sapiens)
- Construct: expressed in transfected cells; host or cells: Chinese hamster ovary (CHO) cells, stably transfected
- Sequence (P13945 whole entry): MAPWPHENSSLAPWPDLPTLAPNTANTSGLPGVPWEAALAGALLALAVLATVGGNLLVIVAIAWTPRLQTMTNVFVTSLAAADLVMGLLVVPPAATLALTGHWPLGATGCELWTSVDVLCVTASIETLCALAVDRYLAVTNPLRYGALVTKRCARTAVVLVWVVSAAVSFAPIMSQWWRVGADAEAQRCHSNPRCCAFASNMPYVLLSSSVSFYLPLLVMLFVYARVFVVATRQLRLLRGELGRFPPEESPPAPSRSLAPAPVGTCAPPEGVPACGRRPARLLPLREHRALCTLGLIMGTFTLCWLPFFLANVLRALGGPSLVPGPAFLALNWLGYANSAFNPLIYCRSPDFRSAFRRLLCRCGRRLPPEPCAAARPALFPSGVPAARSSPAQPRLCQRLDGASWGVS
- PROTOCOL_SUMMARY: Beta-3 agonist in vitro functional assay: cAMP production (LANCE TR-FRET) in CHO cells stably transfected with the cloned β3 receptor
- Assay type: cell-based
- TEST_PARAMETERS: Table 12; human β3 functional activity given as ranges; read-out: Human β3 agonist functional activity
pEC50: −log10 of the molar value.

Solved entries (count: 5):
CC(c1ncco1)N1CCN(C(=O)c2ccc(CC3CCC(C(O)c4ccccc4)N3)cc2)CC1 (single isomer, unassigned) [Example 583]	7.00 to 8.00
CC(C)C1CC2(CCN(C(=O)c3ccc(CC4CCC(C(O)c5ccccc5)N4)cc3)CC2)C(=O)O1 (single isomer, unassigned) [Example 567]	8.00 to 9.00
CC(c1nccs1)N1CCN(C(=O)c2ccc(CC3CCC(C(O)c4ccccc4)N3)cc2)CC1 (single isomer, unassigned) [Example 581]	8.00 to 9.00
O=C(c1ccc(C[C@@H]2CC[C@H]([C@H](O)c3ccccc3)N2)cc1)N1CCN(C2COc3cccnc32)CC1 (single isomer, unassigned) [Example 600]	8.00 to 9.00
CC(c1ncccn1)N1CCN(C(=O)c2ccc(CC3CCC(C(O)c4ccccc4)N3)cc2)CC1 (single isomer, unassigned) [Example 596]	7.00 to 8.00

Then there is this molecule:
Give the measured pEC50 of CCC(c1ccccn1)N1CCN(C(=O)c2ccc(CC3CCC(C(O)c4ccccc4)N3)cc2)CC1 (single isomer, unassigned) [Example 588] .
8.00 to 9.00
